Molecular target: Estrogen receptor (Homo sapiens, UniProt P03372)
Sequence (P03372 whole entry): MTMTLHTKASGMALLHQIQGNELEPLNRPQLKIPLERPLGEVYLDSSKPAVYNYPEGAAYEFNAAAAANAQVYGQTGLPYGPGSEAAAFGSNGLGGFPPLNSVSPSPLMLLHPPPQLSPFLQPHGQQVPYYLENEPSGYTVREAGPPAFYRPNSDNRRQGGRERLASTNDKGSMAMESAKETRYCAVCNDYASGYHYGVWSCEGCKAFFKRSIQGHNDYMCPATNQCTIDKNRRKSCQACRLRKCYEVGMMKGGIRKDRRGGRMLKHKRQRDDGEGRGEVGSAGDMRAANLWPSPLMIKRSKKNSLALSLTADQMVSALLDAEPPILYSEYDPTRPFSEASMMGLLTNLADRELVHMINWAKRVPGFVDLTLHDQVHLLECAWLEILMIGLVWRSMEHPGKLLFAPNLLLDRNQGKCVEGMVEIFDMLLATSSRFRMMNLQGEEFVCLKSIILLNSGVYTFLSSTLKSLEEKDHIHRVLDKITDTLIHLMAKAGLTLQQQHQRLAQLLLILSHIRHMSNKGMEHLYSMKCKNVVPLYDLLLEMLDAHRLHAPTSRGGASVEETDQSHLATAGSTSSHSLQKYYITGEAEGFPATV
Assay: Induction of ERalpha protein degradation in human MCF7 cells assessed as reduction in ERalpha protein levels incubated for 24 hrs by In-cell western assay
Measured quantity: IC50

**Q:** Entry `O=C(NCCCCOc1ccc(C(=C2C3CC4CC(C3)CC2C4)c2ccc(O)cc2)cc1)C12CC3CC(CC1C3)C2` , system Estrogen receptor (Homo sapiens, UniProt P03372): what IC50 was measured?
**A:** 2 nM
